These measurements were taken from paper PMC5940854.

test system: E. coli clinical isolates; test: MIC on panel of E. coli clinical isolates; format: cell-based; details: strain SEC029
MIC strictly under 2 µg/mL means class 1; at 2 µg/mL or over means class 0.

molecule="C[C@@H](O)[C@H]1C(=O)N2C(C(=O)O)=C(S[C@@H]3CN[C@H](C(=O)N(C)C)C3)[C@H](C)[C@H]12 [meropenem, reference compound]" categorylabel="class 1"
molecule="CNC(C)C1CCC(N)C(OC2C(N)CC(N)C(OC3OCC(C)(O)C(NC)C3O)C2O)O1 (stereo not drawn) [gentamicin, reference compound]" categorylabel="class 0"
molecule=O=C(Nc1nc(-c2ccc(F)cc2)cs1)c1ccc([N+](=O)[O-])s1 categorylabel="class 0"
molecule="O=C1CN(/N=C/c2ccc([N+](=O)[O-])o2)C(=O)N1 [nitrofurantoin, reference compound]" categorylabel="class 0"
